Overview of reported β-Cat FP Hill slope across a group of compounds:
target: β-catenin (Homo sapiens, UniProt P35222); assay: KD50 measurement using competitive fluorescence polarization (FP) with labelled TCF4; assay type: binding; conditions: fluorescence polarization, β-catenin
Sequence (P35222 whole entry): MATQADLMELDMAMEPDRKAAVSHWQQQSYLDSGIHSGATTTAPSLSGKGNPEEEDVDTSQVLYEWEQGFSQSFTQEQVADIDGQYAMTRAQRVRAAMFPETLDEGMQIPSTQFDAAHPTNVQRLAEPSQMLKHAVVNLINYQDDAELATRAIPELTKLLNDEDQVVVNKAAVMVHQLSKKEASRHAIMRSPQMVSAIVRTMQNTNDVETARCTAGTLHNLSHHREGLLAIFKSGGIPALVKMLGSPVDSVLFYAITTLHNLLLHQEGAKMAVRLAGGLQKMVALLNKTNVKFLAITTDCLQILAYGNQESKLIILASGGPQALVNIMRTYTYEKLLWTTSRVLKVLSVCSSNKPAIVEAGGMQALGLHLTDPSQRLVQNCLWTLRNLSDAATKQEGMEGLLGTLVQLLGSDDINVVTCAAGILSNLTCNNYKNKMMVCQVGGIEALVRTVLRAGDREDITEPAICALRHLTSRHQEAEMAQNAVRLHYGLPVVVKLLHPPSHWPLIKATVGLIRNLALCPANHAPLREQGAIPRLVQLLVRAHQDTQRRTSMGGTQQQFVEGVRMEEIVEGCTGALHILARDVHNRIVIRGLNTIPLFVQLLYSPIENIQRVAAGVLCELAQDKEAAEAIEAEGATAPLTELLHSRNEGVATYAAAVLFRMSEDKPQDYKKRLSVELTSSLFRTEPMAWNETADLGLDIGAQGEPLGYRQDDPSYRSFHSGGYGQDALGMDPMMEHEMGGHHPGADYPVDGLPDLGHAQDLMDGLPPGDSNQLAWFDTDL
Where a SMILES comes first, the peptide text is derived from it. The star is where a group is joined. Bn = c1ccc(C*)cc1
Answer with a bare number; do not write a unit.

[Q] Query: β-Cat FP Hill slope; subject: CC[C@H](C)[C@H](NC(=O)[C@H](CC(C)C)NC(=O)[C@H](Cc1ccccc1)NC(=O)[C@@H](N)Cc1c[nH]c2ccccc12)C(=O)N[C@@H](CO)C(=O)N[C@@H](COCc1ccccc1)C(=O)N[C@@H](Cc1c[nH]c2ccccc12)C(=O)O [compound 101] (H-WFLISS(Bn)W-OH)
[A] 3

[Q] Same lookup for CC[C@H](C)[C@@H]1NC(=O)[C@H](CC(C)C)NC(=O)[C@H](Cc2ccccc2)NC(=O)[C@H](Cc2c[nH]c3ccccc23)NC(=O)[C@@H](N)CCCCNC(=O)CC[C@@H](C(=O)N[C@@H](Cc2c[nH]c3ccccc23)C(=O)NCC(=O)O)NC(=O)[C@H](CO)NC1=O [compound 228] (HELM PEPTIDE1{K.W.F.L.I.S.E.W.G}$PEPTIDE1,PEPTIDE1,1:R3-7:R3$$$V2.0) , please.
[A] 0.2

[Q] Same lookup for CC[C@H](C)[C@H](NC(=O)[C@H](CC(C)C)NC(=O)[C@H](Cc1ccccc1)NC(=O)[C@H](C)N(C)C(=O)[C@H](CCSC)NC(=O)[C@H](CCCNC(=N)N)NC(=O)[C@H](CO)NC(=O)[C@@H](N)CCSC)C(=O)N[C@@H](CO)C(=O)N[C@@H](Cc1ccccc1)C(=O)N[C@@H](Cc1c[nH]c2ccccc12)C(=O)NCC(=O)O [compound 50] (HELM PEPTIDE1{M.S.R.M.[meA].F.L.I.S.F.W.G}$$$$V2.0) , please.
[A] 0.76

[Q] Same lookup for CC[C@@H]1NC(=O)[C@H]([C@@H](C)CC)NC(=O)[C@H](CC(C)C)NC(=O)[C@H](Cc2ccccc2)NC(=O)[C@H](Cc2c[nH]c3ccccc23)NC(=O)CCCCCNC(=O)C[C@@H](C(=O)O)NC(=O)[C@H](Cc2c[nH]c3ccccc23)NC(=O)[C@H](C)NC1=O [compound 246] (HELM PEPTIDE1{[O=C(CCCCCN[*:1])[*:2]].W.F.L.I.[Abu].A.W.D}$PEPTIDE1,PEPTIDE1,1:R1-9:R3$$$V2.0) , please.
[A] 3

[Q] Same lookup for CC[C@H](C)[C@H](NC(=O)[C@H](CC(C)C)NC(=O)[C@H](Cc1ccccc1)NC(=O)[C@@H](N)Cc1c[nH]c2ccccc12)C(=O)N[C@@H](CO)C(=O)N[C@@H](CO)C(=O)N[C@@H](Cc1c[nH]c2ccccc12)C(=O)O [compound 97] (H-WFLISSW-OH) , please.
[A] 2.45

[Q] Same lookup for CC[C@H](C)[C@@H]1NC(=O)[C@H](CC(C)C)NC(=O)[C@H](Cc2ccccc2)NC(=O)[C@H](Cc2c[nH]c3ccccc23)NC(=O)[C@@H](NC(C)=O)CCCCNC(=O)CC[C@@H](C(=O)O)NC(=O)[C@H](Cc2c[nH]c3ccccc23)NC(=O)[C@H](Cc2ccccc2)NC(=O)[C@H](C)NC1=O [compound 200] (HELM PEPTIDE1{[ac].K.W.F.L.I.A.F.W.E}$PEPTIDE1,PEPTIDE1,2:R3-10:R3$$$V2.0) , please.
[A] 0.7
